# Tested on: Spodoptera littoralis
# test summary: Antifeedant activity against Spodoptera littoralis L6 larvae assessed as biomass gain relative to control
# Format: functional
# Design: concentration or dose not given beside the values
measure name: Activity (%)

compound="CC(=O)OC[C@]12[C@H](OC(C)=O)C(=O)[C@@H]3[C@@H](OC(C)=O)[C@@]14O[C@@]3(C)COC(=O)c1cccnc1CCC(C)(O)C(=O)O[C@@H]([C@H](OC(=O)c1ccccc1)[C@@H]2OC(=O)c1ccccc1)[C@]4(C)O (some centres undefined)" measure_name=Activity reported_result=93
compound="CC(=O)OC[C@]12[C@H](OC(C)=O)[C@H](OC(C)=O)[C@@H]3[C@@H](OC(C)=O)[C@@]14O[C@@]3(C)COC(=O)c1cccnc1CCC(C)C(=O)O[C@@H]([C@H](OC(C)=O)[C@@H]2OC(C)=O)[C@]4(C)O (some centres undefined) [EUONINE]" measure_name=Activity reported_result=98
compound="CC(=O)OC[C@]12[C@H](OC(C)=O)[C@H](OC(C)=O)[C@@H]3[C@@H](OC(C)=O)[C@@]14O[C@@]3(C)COC(=O)c1cccnc1C(C)C(C)C(=O)O[C@@H]([C@H](OC(C)=O)[C@@H]2OC(C)=O)[C@]4(C)O (some centres undefined) [EUONYMINE]" measure_name=Activity reported_result=105
compound="CC(=O)OC[C@]12[C@H](OC(C)=O)[C@H](OC(C)=O)[C@@H]3[C@@H](OC(C)=O)[C@@]14O[C@@]3(C)COC(=O)c1cccnc1CCC(C)(O)C(=O)O[C@@H]([C@H](OC(C)=O)[C@@H]2OC(C)=O)[C@]4(C)O (some centres undefined) [ALATUSININE]" measure_name=Activity reported_result=111

###

# System: Spodoptera littoralis
# test summary: Antifeedant activity against Spodoptera littoralis L6 larvae assessed as biomass gain relative to control
# Format: functional
# Set-up: concentration or dose not given beside the values
measure name: Activity (%)

molecule="CC(=O)OC[C@]12[C@H](OC(C)=O)[C@H](OC(C)=O)[C@@H]3[C@@H](OC(C)=O)[C@@]14O[C@@]3(C)COC(=O)c1cccnc1C(C)C(C)C(=O)O[C@@H]([C@H](O)[C@@H]2OC(C)=O)[C@]4(C)O (some centres not stated)" reported_result=101
molecule="CC(=O)OC[C@]12[C@H](OC(C)=O)[C@H](OC(C)=O)[C@@H]3[C@@H](OC(C)=O)[C@@]14O[C@@]3(C)COC(=O)c1cccnc1C(C)C(C)C(=O)O[C@@H]([C@H](OC(C)=O)[C@@H]2OC(=O)c1ccccc1)[C@]4(C)O (some centres not stated)" reported_result=112

###

Listed molecules paired with reported CC50
# test summary: Cytotoxicity against Spodoptera frugiperda Sf9 cells by MTT assay
# Type: cell-based
# applied conditions: read-out: LD50 (the source's name)
measure name: CC50 (µg/mL)

molecule="CC(=O)OC[C@]12[C@H](OC(C)=O)[C@H](OC(C)=O)[C@@H]3[C@@H](OC(C)=O)[C@@]14O[C@@]3(C)COC(=O)c1cccnc1CCC(C)(O)C(=O)O[C@@H]([C@H](OC(=O)c1ccccc1)[C@@H]2OC(C)=O)[C@]4(C)O (some centres not stated)" endpoint_unit=µg/mL censoring_operator== reported_result=86.2
molecule="CC(=O)OC[C@]12[C@H](OC(C)=O)[C@H](OC(C)=O)[C@@H]3[C@@H](OC(C)=O)[C@@]14O[C@@]3(C)COC(=O)c1cccnc1CCC(C)(O)C(=O)O[C@@H]([C@H](OC(=O)c1ccccc1)[C@@H]2OC(=O)c1ccccc1)[C@]4(C)O (some centres not stated)" endpoint_unit=µg/mL censoring_operator=> reported_result=100

###

# test summary: Cytotoxicity against Spodoptera frugiperda Sf9 cells by MTT assay
# Type: cell-based
# applied conditions: read-out: LD50 (the source's name)
Quick list: CC50 per entry.
measure name: CC50 (µg/mL)

compound="CC(=O)OC[C@]12[C@H](OC(C)=O)C(=O)[C@@H]3[C@@H](OC(C)=O)[C@@]14O[C@@]3(C)COC(=O)c1cccnc1CCC(C)(O)C(=O)O[C@@H]([C@H](OC(=O)c1ccccc1)[C@@H]2OC(=O)c1ccccc1)[C@]4(C)O (some centres undefined)" reported_result=78.7
compound="CC(=O)OC[C@]12[C@H](OC(C)=O)[C@H](OC(C)=O)[C@@H]3[C@@H](OC(C)=O)[C@@]14O[C@@]3(C)COC(=O)c1cccnc1CCC(C)(O)C(=O)O[C@@H]([C@H](OC(C)=O)[C@@H]2OC(C)=O)[C@]4(C)O (some centres undefined)" reported_result=73.2
compound="CC(=O)OC[C@]12[C@H](OC(C)=O)[C@H](OC(C)=O)[C@@H]3[C@@H](OC(C)=O)[C@@]14O[C@@]3(C)COC(=O)c1cccnc1CCC(C)C(=O)O[C@@H]([C@H](OC(C)=O)[C@@H]2OC(C)=O)[C@]4(C)O (some centres undefined)" reported_result=48.4
compound="CC(=O)OC[C@]12[C@H](OC(C)=O)[C@H](OC(C)=O)[C@@H]3[C@@H](OC(C)=O)[C@@]14O[C@@]3(C)COC(=O)c1cccnc1C(C)C(C)C(=O)O[C@@H]([C@H](O)[C@@H]2OC(=O)c1ccccc1)[C@]4(C)O (some centres undefined)" reported_result=78.8

###

# Tested on: Spodoptera littoralis
# test summary: Antifeedant activity against Spodoptera littoralis L6 larvae assessed as biomass gain relative to control
# Format: functional
# Parameters: concentration or dose not given beside the values
Quick list: Activity per entry.
measure name: Activity (%)

molecule="CC(=O)OC[C@]12[C@H](OC(C)=O)[C@H](OC(C)=O)[C@@H]3[C@@H](OC(C)=O)[C@@]14O[C@@]3(C)COC(=O)c1cccnc1C(C)C(C)C(=O)O[C@@H]([C@H](O)[C@@H]2OC(=O)c1ccccc1)[C@]4(C)O (some centres undefined)" reported_result=83
molecule="CC(=O)OC[C@]12[C@H](OC(C)=O)C(=O)[C@@H]3[C@@H](OC(C)=O)[C@@]14O[C@@]3(C)COC(=O)c1cccnc1CCC(C)(O)C(=O)O[C@@H]([C@H](OC(=O)c1ccccc1)[C@@H]2OC(C)=O)[C@]4(C)O (some centres undefined)" reported_result=118
molecule="CC(=O)OC[C@]12[C@H](OC(C)=O)[C@H](OC(C)=O)[C@@H]3[C@@H](OC(C)=O)[C@@]14O[C@@]3(C)COC(=O)c1cccnc1CCC(C)(O)C(=O)O[C@@H]([C@H](OC(=O)c1ccccc1)[C@@H]2OC(=O)c1ccccc1)[C@]4(C)O (some centres undefined)" reported_result=96
molecule="CC(=O)OC[C@]12[C@H](OC(C)=O)[C@H](OC(C)=O)[C@@H]3[C@@H](OC(C)=O)[C@@]14O[C@@]3(C)COC(=O)c1cccnc1CCC(C)(O)C(=O)O[C@@H]([C@H](OC(=O)c1ccccc1)[C@@H]2OC(C)=O)[C@]4(C)O (some centres undefined)" reported_result=93
